# Tested on: COLO 205 colon
# assay_comment: NCI tumour cell line growth inhibition, 48 h
readout: TGI

# annotated cases, reported TGI shown
{"structure_as_smiles": "CC(=O)NNc1nc(C)c(C(=O)NNC(=O)C(=O)Nc2c(Cl)cc([N+](=O)[O-])cc2Cl)s1", "TGI": "> 100 µM"}
{"structure_as_smiles": "O=C(N/C(=C\\c1ccc(/C=C(\\NC(=O)c2ccccc2)c2nc3cc([N+](=O)[O-])ccc3[nH]2)cc1)c1nc2cc([N+](=O)[O-])ccc2[nH]1)c1ccccc1", "TGI": "> 100 µM"}
{"structure_as_smiles": "CCN(CC)CCC(=O)Nc1ccc2c(c1)C(=O)c1ccc(NC(=O)CCN(CC)CC)cc1C2=O", "TGI": "14.4 µM"}

// TGI lookup, key: `CN(C)C(=N)c1ccccc1` > 100 µM
